Below, each of the binders is paired with its reported kon value.
EXPERIMENTAL TARGET: T1, recombinant PRL-3 (Phosphatase of Regenerating Liver-3) (Homo sapiens, UniProt O75365)
T1 construct: Phosphatase of Regenerating Liver-3 (PRL-3), human cDNA amplified with gene-specific primers and cloned into pSKB3 (NheI/XhoI); also called apo PRL-3; PTP4A family member; source: E. coli One-Shot BL21 Star DE3, purified (Ni-NTA, TEV cleavage, Superdex 200); not shown: 6XHis, N-terminal, cleaved
T1 sequence (O75365 1-169): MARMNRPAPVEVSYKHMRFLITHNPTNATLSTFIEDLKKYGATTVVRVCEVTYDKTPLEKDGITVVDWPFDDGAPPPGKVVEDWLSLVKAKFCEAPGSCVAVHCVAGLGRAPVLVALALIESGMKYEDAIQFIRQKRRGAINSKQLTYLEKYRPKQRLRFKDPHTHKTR
PROTOCOL DESCRIPTION: BLI; BLItz; nanobody (626.57 nM) loaded on Anti-Penta-HIS (HIS1K) biosensors; PRL-3 as analyte at six concentrations; association 5 min, dissociation 2 min; 1X kinetics buffer; global fit
PROTOCOL CONDITIONS: both partners purified
READOUT: kon (M⁻¹ s⁻¹)

- anti-PRL-3 nanobody 84 (VHH, also called NB 84; source: E. coli One-Shot BL21 Star DE3 (pMES4), purified (Ni-NTA, Superdex 200); not shown: 6XHis, C-terminal, kept) VHH: QVQLQESGGGLVQAGGSLGLSCAASRSIFNFKVMGWYRQAPGKQRELVASITNSDNTYYADSVKGRFTISREDAKTTMYLEMNSLKPEDTTVYRCYGQNWGLRATTYWGQGTQVTVSS: 3280
- anti-PRL-3 nanobody 4 (VHH, also called NB 4; source: E. coli One-Shot BL21 Star DE3 (pMES4), purified (Ni-NTA, Superdex 200); not shown: 6XHis, C-terminal, kept) VHH: QVQLQESGGGLVQTGGSLRLSCAASQSTYNFDVMGWYRLAPGKQREFLTSITNGGNIYYADSVKGRFTIARDDSKTTMYLEMNSLKPEDTAVYTCYGQTHKPRVTTSWGQGTQVTVSS: 2750
- anti-PRL-3 nanobody 19 (VHH, also called NB 19; source: E. coli One-Shot BL21 Star DE3 (pMES4), purified (Ni-NTA, Superdex 200); not shown: 6XHis, C-terminal, kept) VHH: QVQLQESGGGLVQAGGSLGLSCAASRSIFNFKVMGWYRQAPGKQRELVASITNSDNTYYADSVKGRFTISREDAKTTMYLEMNSLKPEDTAVYRCYGQNWGLRATTYWGQGTQVTVSS: 3920
- anti-PRL-3 nanobody 26 (VHH, also called NB 26; nanobody 26-His; source: E. coli One-Shot BL21 Star DE3 (pMES4), purified (Ni-NTA, Superdex 200); not shown: 6XHis, C-terminal, kept) VHH: QVQLQESGGGLVQPGGSLKLSCVVTGLHYYTEGWFRQAPGKEREGVSCISSSDGRTDYIDSVKGRFTISEDNDNKTVYLQMNTLKPDDTGVYYCVAERGPRGSTWWETYDYWGQGTHVTVSS: 4380
- anti-PRL-3 nanobody 91 (VHH, 91 is its standard; also called NB 91; nanobody 91-His; source: E. coli One-Shot BL21 Star DE3 (pMES4), purified (Ni-NTA, Superdex 200); not shown: 6XHis, C-terminal, kept) VHH: QVQLQESGGGLVQTGGSLRLSCAASQSTFNFDVMGWYRLAPGKQREFLTSITNGGNIYYADSVKGRFTIARDDSKTTMYLEMNSLKPEDTAVYTCYGQTHKPRVTTSWGQGTQVTVSS: 6880
- anti-PRL-3 nanobody 16 (VHH, also called NB 16; source: E. coli One-Shot BL21 Star DE3 (pMES4), purified (Ni-NTA, Superdex 200); not shown: 6XHis, C-terminal, kept) VHH: QVQLQESGGGLVQTGGSLRLSCAASQSTFNFDVMGWYRLAPGKQREFLTSITNGGNIYYADSVKGRFTTARDDSKTTMYLEMNSLKPEDTAVYTCYGQTHKPRVTTSWGQGTQVTVSS: 2090
